target: Phosphatidylinositol 4,5-bisphosphate 3-kinase catalytic subunit alpha isoform (Mus musculus); test: Biochemical Assay; settings: pH 7.4; 25 °C
Sequence (P42337 whole entry, canonical isoform): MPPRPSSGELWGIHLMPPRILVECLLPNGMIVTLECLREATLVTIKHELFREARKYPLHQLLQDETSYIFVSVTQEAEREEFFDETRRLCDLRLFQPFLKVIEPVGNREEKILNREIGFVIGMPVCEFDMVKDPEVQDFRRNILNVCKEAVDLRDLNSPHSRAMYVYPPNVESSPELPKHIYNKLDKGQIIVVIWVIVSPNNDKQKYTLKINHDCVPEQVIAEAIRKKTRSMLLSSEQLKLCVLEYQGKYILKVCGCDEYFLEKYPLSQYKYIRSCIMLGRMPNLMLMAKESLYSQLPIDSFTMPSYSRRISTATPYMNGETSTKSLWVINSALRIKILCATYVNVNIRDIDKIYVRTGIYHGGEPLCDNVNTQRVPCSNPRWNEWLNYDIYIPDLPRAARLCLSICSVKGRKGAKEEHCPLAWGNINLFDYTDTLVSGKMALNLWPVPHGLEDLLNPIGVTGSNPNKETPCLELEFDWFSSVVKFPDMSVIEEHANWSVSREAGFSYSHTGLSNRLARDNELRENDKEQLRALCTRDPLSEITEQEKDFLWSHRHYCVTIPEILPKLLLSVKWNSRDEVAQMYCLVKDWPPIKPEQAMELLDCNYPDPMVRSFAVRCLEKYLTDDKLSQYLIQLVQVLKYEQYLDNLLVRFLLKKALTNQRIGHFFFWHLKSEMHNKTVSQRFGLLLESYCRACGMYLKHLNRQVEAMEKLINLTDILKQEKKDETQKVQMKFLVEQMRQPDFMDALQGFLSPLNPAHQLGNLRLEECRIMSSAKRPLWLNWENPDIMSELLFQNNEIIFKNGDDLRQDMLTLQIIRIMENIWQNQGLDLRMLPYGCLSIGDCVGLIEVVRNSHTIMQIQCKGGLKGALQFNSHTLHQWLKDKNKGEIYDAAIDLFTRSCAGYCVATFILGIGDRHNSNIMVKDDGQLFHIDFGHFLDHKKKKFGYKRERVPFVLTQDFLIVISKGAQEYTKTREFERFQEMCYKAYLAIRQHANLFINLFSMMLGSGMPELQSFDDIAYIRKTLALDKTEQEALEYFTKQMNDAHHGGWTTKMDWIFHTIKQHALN
API: label(entry) gives True if the entry's IC50 is strictly smaller than 30 nM; on equality or larger values it gives False.

Below are worked cases with known answers.
mol.smiles | assigned.category
CCNc1nc(C)c2cc(-c3cccc(O)c3)c(=O)n(C3CCCC3)c2n1 | True
Cc1nc(N)nc2c1cc(Br)c(=O)n2CC(C)(C)O | False
Cc1nc(N)nc2c1cc(Br)c(=O)n2[C@H]1CC[C@H](O)CC1 | False
Cc1nc(N)nc2c1cc(-c1cnn(C)c1)c(=O)n2C1CCCC1 | False
CCNc1nc(C)c2cc(-c3ccc(O)c(OC)c3)c(=O)n(C3CCCC3)c2n1 | True

Enquiry: Determine if `Cc1nc(N)nc2c1cc(-c1cccnc1N)c(=O)n2C1CCCC1` shows IC50 strictly lower than 30 nM.
Return: False

Enquiry: Determine if `Cc1nc(N)nc2c1cc(-c1cn[nH]c1)c(=O)n2C1CCC(=O)CC1` shows IC50 strictly lower than 30 nM.
Return: True
